target: MSI1 full-length (mouse, UniProt Q61474 1-362); experiment: nsRBNS (natural sequence RNA bind-n-seq); RBNS binding buffer (assumed for nsRBNS): 25 mM Tris pH 7.5, 150 mM KCl, 3 mM MgCl2, 0.01% Triton X-100, 500 ug/ml BSA, 20 U/ml SUPERase-In, 4 C; UNK is unkempt and MSI1 is Musashi-1; names of the RNAs are library labels; protein concentration not given here; high values mean tight binding
Sequence (Q61474 whole entry): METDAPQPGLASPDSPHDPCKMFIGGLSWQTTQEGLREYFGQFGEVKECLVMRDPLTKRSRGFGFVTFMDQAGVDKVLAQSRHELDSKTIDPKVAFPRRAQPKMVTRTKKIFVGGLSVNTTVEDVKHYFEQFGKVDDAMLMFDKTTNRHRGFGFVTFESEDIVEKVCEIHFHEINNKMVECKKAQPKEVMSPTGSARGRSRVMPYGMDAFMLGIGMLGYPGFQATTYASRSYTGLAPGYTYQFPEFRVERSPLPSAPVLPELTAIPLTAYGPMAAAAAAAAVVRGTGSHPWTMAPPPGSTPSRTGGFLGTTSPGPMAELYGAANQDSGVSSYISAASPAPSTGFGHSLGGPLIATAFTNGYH
Over roughly 5,800 sequences, “enrichment r” has its median near 0.54; the highest 2% begin near 16. Shown is part of a subset that was picked to be rich in the highest values.
Quantity Measured: binding signal

1) chr7:30424526:30425710:-|three_prime_utr|ENSG00000106100|control|control|control (ssRNA) RNA: GGGAGUUCUACAGUCCGACGAUCAAACUCCCUAAGUACCCGCUACAAUUCUGCAGAAAAAGAAUGUGUCUUGCGAGCUGUUGUAGUUACAGUAAAUACACUGUGAAGAGACUUUAUUGCCUAUUAUAAUUAUUUUUAUCUGAACAACAGAGGAUUGAGCAUCA
3.46 enrichment R
2) chr1:150220393:150220494:-|3pUTR|ENSG00000143401|msi1_unk|FALSE|overlapping (ssRNA) RNA: GGGAGUUCUACAGUCCGACGAUCAUUGUAUGUAGAGAAAAAUUUUCAUUGACUCCCAUUGUGGAAUUCCCUAGCAAUUUAUUUAGACUUAAUUUUUUAAAUUCAAGCUUACUGUAUUAGUCAUUUUUAGCCCAUAAUUAAAACCAACAGAGGAUUGAGCAUCA
61.8 enrichment R
3) chr8:100287602:100287712:-|CDS|ENSG00000034677|unk|FALSE|unique (ssRNA) RNA: GGGAGUUCUACAGUCCGACGAUCUGUGUGGAUUGCUUACGACAAUAUUUAAGGAUAGAAAUCUCUGAAAGCAGAGUUAAUAUUAGUUGCCCAGAAUGUACUGAACGGUUUAAUCCCCAUGAUAUUCGCUUGAUAUUAAGUGAUCAACAGAGGAUUGAGCAUCA
22.4 enrichment R
